# Tested on: CP291
# PROTOCOL: qHTS profiling for inhibitors of Plasmodium falciparum proliferation (AID 504749); also: nearly all actives have a fitted effect of over 60% in size; also: potency is read from the fitted curve at half-maximal effect
# SETUP CONDITIONS: P. falciparum in erythrocytes, SYBR Green DNA, 72 h; series mostly up to 28.7 µM
Results filed as inconclusive are left out. Active and inactive are the calls of the source. Calls follow the shape of the dose curve; as a rule, active = well fitted inhibition curve with a large enough effect; inconclusive = small, poorly fitted or top-dose-only effect; inactive = flat fitted curve, though single readings scatter.
ENDPOINT: Potency

Use the examples below as a reference point.
C[N+]1(CCC(C(N)=O)(c2ccccc2)c2ccccc2)CCCCC1	inactive
Cc1ccc(N=CN(C)C=Nc2ccc(C)cc2C)c(C)c1	inactive
CC(C)(O)C(Cl)(Cl)Cl	15.1 µM (active)
N#Cc1nn(-c2c(Cl)cc(C(F)(F)F)cc2Cl)c(N)c1S(=O)C(F)(F)F (stereo not given)	6.75 µM (active)
OC(O)C(Cl)(Cl)Cl	inactive

Query :: Suppose we examine the compound O=C(O)c1nn(Cc2ccc(Cl)cc2Cl)c2ccccc12 ; what Potency value has been reported?
Result :: inactive

Query :: Record: CC(C)[N+](C)(CCC(C(N)=O)(c1ccccc1)c1ccccc1)C(C)C
Result :: inactive

Query :: Same thing, different compound: CCN(CC)C(C)C(=O)c1ccccc1 (stereo not given)
Result :: inactive

Query :: Quick one: CC(C)NCC(O)c1ccc(N)c(C#N)c1 (stereo not given)
Result :: inactive

Query :: Also check COP(=O)(OC)C(O)C(Cl)(Cl)Cl (stereo not given)
Result :: inactive

Query :: Input CN1C[C@@H](NS(=O)(=O)N(C)C)C[C@@H]2c3cccc4c3c(cn4C)C[C@H]21
Result :: inactive

Query :: Then what about the compound Clc1ccc(CO/N=C(\Cn2ccnc2)c2ccc(Cl)cc2Cl)c(Cl)c1 ?
Result :: 12 µM (active)

Query :: What about this compound? C[N+](C)(C)CCOC(=O)C(O)(c1ccccc1)c1ccccc1
Result :: inactive

Query :: // same read-out, input: C[C@H]1C(=O)O[C@@H]2CCN3CC=C(COC(=O)[C@](C)(O)[C@]1(C)O)[C@H]23
Result :: inactive

Query :: For CC[C@]1(O)CC[C@H]2[C@@H]3CCC4=CCCC[C@@H]4[C@H]3CC[C@@]21C then?
Result :: inactive
